biological target: T1, recombinant cynoPD-1 (construct not stated) (cynomolgus monkey, UniProt B0LAJ3 25-170); assay: SPR, Ab captured, PD-1 analyte
T1 construct: not shown: probably His as elsewhere
T1 sequence (B0LAJ3 entry or part of it limits assumed): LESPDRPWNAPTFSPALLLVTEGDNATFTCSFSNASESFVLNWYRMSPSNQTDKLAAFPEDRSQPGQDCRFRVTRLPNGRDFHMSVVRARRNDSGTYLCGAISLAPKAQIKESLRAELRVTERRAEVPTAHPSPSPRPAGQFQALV
The following binders are shown together with reported Kd values.
Dear colleague, please return just the value in nM, with no unit written.

Some solved cases for reference:
ZJN296-0 (antibody, human IgG1, V domains shown, human IgG1; also called humanized ZJN296-0; GH + GL) VH: QVQLVQSGAEVKKPGASVKVSCKASGYDFTSHWMHWVRQAPGQGLEWMGAIDPSDSYTNYNQKFKGRVTMTTDTSTSTAYMELRSLRSDDTAVYYCARSPFDYWGQGTTVTVSS VL: DIQMTQSPSSLSASVGDRVTITCKASQDVSTAVAWYQQKPGKAPKLLIYSASYRYTGVPSRFSGSGSGTDFTFTISSLQPEDIATYYCQQHYSFPFTFGQGTKLEIK	104
ZJN296-2 (antibody, V domains shown, human IgG1; also called GH + T071V, GL) VH: QVQLVQSGAEVKKPGASVKVSCKASGYDFTSHWMHWVRQAPGQGLEWMGAIDPSDSYTNYNQKFKGRVTMTVDTSTSTAYMELRSLRSDDTAVYYCARSPFDYWGQGTTVTVSS VL: DIQMTQSPSSLSASVGDRVTITCKASQDVSTAVAWYQQKPGKAPKLLIYSASYRYTGVPSRFSGSGSGTDFTFTISSLQPEDIATYYCQQHYSFPFTFGQGTKLEIK	72.7
ZJN296-3 (antibody, V domains shown, human IgG1; also called GH + T073R, GL) VH: QVQLVQSGAEVKKPGASVKVSCKASGYDFTSHWMHWVRQAPGQGLEWMGAIDPSDSYTNYNQKFKGRVTMTTDRSTSTAYMELRSLRSDDTAVYYCARSPFDYWGQGTTVTVSS VL: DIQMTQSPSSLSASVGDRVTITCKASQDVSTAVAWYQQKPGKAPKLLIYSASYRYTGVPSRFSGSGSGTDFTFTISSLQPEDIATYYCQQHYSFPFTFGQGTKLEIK	107

Read the next record carefully.
Field Kd (entry ZJN296-6 (antibody, V domains shown, human IgG1; also called GH + T071V + T073R, GL) VH: QVQLVQSGAEVKKPGASVKVSCKASGYDFTSHWMHWVRQAPGQGLEWMGAIDPSDSYTNYNQKFKGRVTMTVDRSTSTAYMELRSLRSDDTAVYYCARSPFDYWGQGTTVTVSS VL: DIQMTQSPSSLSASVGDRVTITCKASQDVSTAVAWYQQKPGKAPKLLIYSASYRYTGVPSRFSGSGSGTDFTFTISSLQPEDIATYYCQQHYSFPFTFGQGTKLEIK ) reads 43.9
